Cited source: patent US11622970B2

Below, each of the compounds is paired with its reported IC50 value.
Biological target: BCL-2 recombinant protein (Homo sapiens)
Sequence (P10415 whole entry): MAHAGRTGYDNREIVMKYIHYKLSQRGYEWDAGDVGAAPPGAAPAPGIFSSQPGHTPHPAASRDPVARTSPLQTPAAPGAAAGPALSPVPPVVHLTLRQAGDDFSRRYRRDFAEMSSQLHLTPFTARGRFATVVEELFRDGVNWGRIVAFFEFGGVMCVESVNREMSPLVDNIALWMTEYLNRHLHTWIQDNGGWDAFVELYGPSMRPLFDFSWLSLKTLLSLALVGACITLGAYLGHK
Test: Cell free Bcl-2:Bak affinity assay (Bcl-2 Bak), HTRF competition of FAM-Bak peptide
Conditions: 10-concentration IC50 mode, 4 nM BCL-2 recombinant protein, 100 nM FAM-Bak, read-out: potency (IC50)
endpoint.name: IC50

smiles.input: Cc1nc(C(=O)NS(=O)(=O)c2ccc(N3CCN(CC4=C(c5ccc(Cl)cc5)CC(C)(C)CC4)CC3)cc2Oc2cnc3[nH]ccc3c2)ccc1[N+](=O)[O-]
experimental.result: 10 to 100 nM
--
smiles.input: Cc1cc(C(=O)NS(=O)(=O)c2ccc(N3CCN(CC4=C(c5ccc(Cl)cc5)CC(C)(C)CC4)CC3)cc2Oc2cnc3[nH]ccc3c2)nn1C
experimental.result: 100 to 1000 nM
--
smiles.input: Cc1nn(C)c(C(=O)NS(=O)(=O)c2ccc(N3CCN(CC4=C(c5ccc(Cl)cc5)CC(C)(C)CC4)CC3)cc2Oc2cnc3[nH]ccc3c2)c1C
experimental.result: 100 to 1000 nM
--
smiles.input: Cc1c(Cl)c(C(=O)NS(=O)(=O)c2ccc(N3CCN(CC4=C(c5ccc(Cl)cc5)CC(C)(C)CC4)CC3)cc2Oc2cnc3[nH]ccc3c2)cc([N+](=O)[O-])c1OCc1ccc(Cl)cc1
experimental.result: < 10 nM
--
smiles.input: CC1(C)CCC(CN2CCN(c3ccc(S(=O)(=O)NC(=O)c4ccc(Cl)c(Cl)n4)c(Oc4cnc5[nH]ccc5c4)c3)CC2)=C(c2ccc(Cl)cc2)C1
experimental.result: 10 to 100 nM
--
smiles.input: Cc1nc(C(=O)NS(=O)(=O)c2ccc(N3CCN(CC4=C(c5ccc(Cl)cc5)CC(C)(C)CC4)CC3)cc2Oc2cnc3[nH]ccc3c2)ccc1F
experimental.result: 10 to 100 nM
--
smiles.input: COc1cc(-c2nc(C(=O)NS(=O)(=O)c3ccc(N4CCN(CC5=C(c6ccc(Cl)cc6)CC(C)(C)CC5)CC4)cc3Oc3cnc4[nH]ccc4c3)ccc2F)ccn1
experimental.result: 100 to 1000 nM
--
smiles.input: CC1(C)CCC(CN2CCN(c3ccc(S(=O)(=O)NC(=O)c4ccc(CN5CCOCC5)c([N+](=O)[O-])c4)c(Oc4cnc5[nH]ccc5c4)c3)CC2)=C(c2ccc(Cl)cc2)C1
experimental.result: 100 to 1000 nM
--
smiles.input: CCNc1c([N+](=O)[O-])cc(C(=O)NS(=O)(=O)c2ccc(N3CCN(CC4=C(c5ccc(Cl)cc5)CC(C)(C)CC4)CC3)cc2)c(Cl)c1C
experimental.result: 100 to 1000 nM
--
smiles.input: CC1(C)CCC(CN2CCN(c3ccc(S(=O)(=O)NC(=O)c4ccc(COc5ccc(Cl)cc5)c([N+](=O)[O-])c4)cc3)CC2)=C(c2ccc(Cl)cc2)C1
experimental.result: 10 to 100 nM
--
smiles.input: Cc1c(Cl)c(C(=O)NS(=O)(=O)c2ccc(N3CCN(CC4=C(c5ccc(Cl)cc5)CC(C)(C)CC4)CC3)cc2Oc2cnc3[nH]ccc3c2)cc([N+](=O)[O-])c1OCC1COC1
experimental.result: 10 to 100 nM
